system-name: PHF1 Tudor domain (residues 25-87), N-terminal His tag (UniProt O43189-1 25-87)
Sequence (O43189 25-87): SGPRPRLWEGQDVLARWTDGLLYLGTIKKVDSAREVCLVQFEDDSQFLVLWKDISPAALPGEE
test-name: ITC
Non-standard residues stand in square brackets, D forms with d. No end group written: not given here.
endpoint: Kd (µM)

I: GGV[N6‑ethyl‑N6‑(1-(furan-2-yl)ethyl)‑lysine]KPLR-NH2 [UNC6640]
II: GGV[N6‑ethyl‑N6‑isopropyl‑lysine]KPLR-NH2 [UNC7643]
Between the entries labelled I and II , which has a larger Kd value on record? Respond with the label that goes with your answer.
I
(I: 17.9 µM, II: 10.1 µM)
